- TEST SYSTEM: DNA polymerase catalytic subunit (Varicella-zoster virus (strain Dumas) (HHV-3) (Human herpesvirus 3), UniProt P09252)
- Sequence (P09252 whole entry): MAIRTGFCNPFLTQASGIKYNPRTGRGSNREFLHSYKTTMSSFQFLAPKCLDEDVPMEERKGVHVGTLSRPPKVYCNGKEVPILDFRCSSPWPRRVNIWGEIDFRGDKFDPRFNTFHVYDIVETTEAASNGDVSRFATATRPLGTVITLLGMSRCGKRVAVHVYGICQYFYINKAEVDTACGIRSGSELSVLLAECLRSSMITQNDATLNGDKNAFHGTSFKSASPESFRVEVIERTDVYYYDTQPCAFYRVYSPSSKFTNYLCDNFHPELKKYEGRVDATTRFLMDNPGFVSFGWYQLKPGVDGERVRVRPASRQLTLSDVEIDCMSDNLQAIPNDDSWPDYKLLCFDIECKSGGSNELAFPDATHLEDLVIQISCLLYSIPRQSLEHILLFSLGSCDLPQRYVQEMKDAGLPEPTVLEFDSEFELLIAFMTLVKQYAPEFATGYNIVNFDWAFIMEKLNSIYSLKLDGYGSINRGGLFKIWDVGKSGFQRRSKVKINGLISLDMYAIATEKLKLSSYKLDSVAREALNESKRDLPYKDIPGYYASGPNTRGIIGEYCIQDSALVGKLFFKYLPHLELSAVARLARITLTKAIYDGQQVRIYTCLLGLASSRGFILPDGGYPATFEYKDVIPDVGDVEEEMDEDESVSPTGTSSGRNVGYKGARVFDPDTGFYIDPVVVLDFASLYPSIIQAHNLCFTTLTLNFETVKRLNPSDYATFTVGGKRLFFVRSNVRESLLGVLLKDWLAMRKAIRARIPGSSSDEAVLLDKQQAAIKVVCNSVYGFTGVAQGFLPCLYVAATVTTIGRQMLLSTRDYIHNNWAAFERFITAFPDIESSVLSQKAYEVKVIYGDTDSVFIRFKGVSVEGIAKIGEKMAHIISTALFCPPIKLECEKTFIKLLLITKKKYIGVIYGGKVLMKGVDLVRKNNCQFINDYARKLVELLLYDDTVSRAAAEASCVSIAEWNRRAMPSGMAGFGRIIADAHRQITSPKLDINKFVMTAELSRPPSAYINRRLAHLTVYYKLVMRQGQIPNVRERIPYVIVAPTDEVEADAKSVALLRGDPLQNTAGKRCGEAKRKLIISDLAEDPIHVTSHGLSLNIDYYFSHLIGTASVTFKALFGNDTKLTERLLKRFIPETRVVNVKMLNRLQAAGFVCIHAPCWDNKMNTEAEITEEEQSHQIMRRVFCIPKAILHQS
- METHOD: Inhibition of Varicella-Zoster virus DNA polymerase (95 uL) activity in a solution containing […] HEPES (pH 7.5), incubation for 12 minutes at 26 degrees C
METRIC NAME: IC50 (nM)

In [3]: df
Out[3]:
                              line_notation  scale_unit  observed_measurement
0  O=C(NCc1ccc(Cl)cc1)c1cnc2ccc(CCCO)cc2c1O          nM                    70
1  Cn1cc(C(=O)NCc2ccc(Cl)cc2)c(=O)c2cc(CN3CCOCC3)sc21          nM                   770

----------
This section presents molecules with their documented CC50 values.
- METHOD: Toxicity on uninfected human foreskin fibroblast cells determined in microscopic evaluation and quantitative neutral red dye uptake assay
- Assay type: cell-based
- ASSAY CONTEXT: uninfected human foreskin fibroblast (HFF) cells
METRIC NAME: CC50

                                   molecule  observed_measurement
0  Cn1cc(C(=O)NCc2ccc(Cl)cc2)c(=O)c2cc(CN3CCOCC3)sc21              > 100 µM
1  Nc1nc2c(ncn2COC(CO)CO)c(=O)[nH]1 [GANCICLOVIR]              > 100 µM
2  O=C(NCc1ccc(Cl)cc1)c1cnc2ccc(CCCO)cc2c1O              > 100 µM
3  Nc1nc2c(ncn2COCCO)c(=O)[nH]1 [ACYCLOVIR]              > 100 µM
4  Cn1cc(C(=O)NCc2ccc(Cl)cc2)c(=O)c2cc(CN3CCOCC3)ccc21              > 100 µM
5  Cn1cc(C(=O)NCc2ccc(Cl)cc2)c(=O)c2cc(CCCO)sc21              > 100 µM

----------
- Tested on: HFF
- METHOD: Antiviral activity against human cytomegalovirus Ad169 (WT) plaque forming unit grown on Human foreskin fibroblast cells upon incubation for 1 hour at 37 degrees C with compound dissolved in DMSO
- Assay type: functional, cell-based
pIC50: −log10 of the molar value.
METRIC NAME: pIC50

>>> df
                      line_notation  metric_name  observed_measurement
0  Nc1nc2c(ncn2COC(CO)CO)c(=O)[nH]1        pIC50                  6.10
